- protocol text: Growth inhibition of african green monkey Vero cells assessed as BrdU incorporation at 155.9 uM after 72 hrs by spectrophotometry
- Assay type: cell-based
- applied conditions: chlorocebus sabaeus, read-out: GI

molecule smiles	value unit	inhibition at 72 h, 155.9 µM
CCOC(=O)c1nnc2n(c1=O)CCN2c1cccc(Cl)c1	%	25

* * *

- protocol text: Growth inhibition of HSF cells assessed as BrdU incorporation at 165.4 uM after 72 hrs by spectrophotometry
- Assay type: cell-based
- applied conditions: human, read-out: GI

molecule smiles	inhibition at 72 h, 165.4 µM
COc1ccc(N2CCn3c2nnc(C(=O)NN)c3=O)cc1	0%

* * *

- protocol text: Cytotoxicity against HSF cells assessed as cell viability at 50 uM after 24 hrs by MTT assay relative to control
- Assay type: cell-based
- applied conditions: human, read-out: Activity
viability at 24 h, 50 µM overview

molecule smiles	value unit	viability at 24 h, 50 µM
CCOC(=O)c1nnc2n(c1=O)CCN2c1ccc(Cl)c(Cl)c1	%	84
COc1ccc(N2CCn3c2nnc(C(=O)NN)c3=O)cc1	%	102
NNC(=O)c1nnc2n(c1=O)CCN2c1ccccc1	%	83
CCOC(=O)c1nnc2n(c1=O)CCN2c1ccc(C)cc1	%	87
Cc1ccc(N2CCn3c2nnc(C(=O)NN)c3=O)cc1	%	111
CCOC(=O)c1nnc2n(c1=O)CCN2c1cccc(Cl)c1	%	103
NNC(=O)c1nnc2n(c1=O)CCN2c1cccc(Cl)c1	%	113
CCOC(=O)c1nnc2n(c1=O)CCN2c1ccccc1	%	98.1
CCOC(=O)c1nnc2n(c1=O)CCN2c1ccc(OC)cc1	%	100
